Molecular target: T1, full-length subunit H (Vma13p), N-terminal MBP fusion (S. cerevisiae, UniProt P41807 1-478)
T1 construct: V-ATPase subunit H (Vma13p), S. cerevisiae, 478 amino acids; Construct provided by the laboratory of Dr. Patricia Kane; also called MBP-H; source: E. coli, purified (amylose column; ultrafiltration or size exclusion chromatography); not shown: MBP, N-terminal, kept
T1 sequence (looked up): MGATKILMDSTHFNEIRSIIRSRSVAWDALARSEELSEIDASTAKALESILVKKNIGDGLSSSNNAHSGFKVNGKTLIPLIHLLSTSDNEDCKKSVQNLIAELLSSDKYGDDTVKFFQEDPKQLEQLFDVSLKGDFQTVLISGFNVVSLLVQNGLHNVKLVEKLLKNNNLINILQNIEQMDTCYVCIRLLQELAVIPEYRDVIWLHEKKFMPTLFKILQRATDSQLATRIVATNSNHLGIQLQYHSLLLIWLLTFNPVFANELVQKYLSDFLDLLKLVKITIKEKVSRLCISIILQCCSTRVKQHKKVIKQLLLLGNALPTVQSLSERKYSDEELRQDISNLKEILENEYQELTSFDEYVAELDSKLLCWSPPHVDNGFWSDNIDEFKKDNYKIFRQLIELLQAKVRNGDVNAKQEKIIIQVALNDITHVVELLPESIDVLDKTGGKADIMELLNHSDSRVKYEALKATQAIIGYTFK
Assay: peptide or protein array; 20-mer peptides linked at their C-terminal end to cellulose and spotted in duplicate on glass slides; blocked in 2% nonfat milk; purified probe at 4 µM in TBS for 1 hour at 4°C; bound probe detected through MBP or FLAG with HRP-coupled antibody (chemiluminescence); hits by ANOVA (p 0.05, Bonferroni) and HCL in MeV, score of at least 1 in 75% of the spots
Conditions: both partners purified
Ends that are not written are not given here. cellulose = not defined here
endpoint_label: binding result

// worked examples, binding result included
binder	test_result
LPPHFNIKIIAVPPKNLSKC-cellulose (peptide, UniProt P31412 321-340, looked up, reading uncertain, source: synthetic peptide, spotted on glass slide array (Intavis)) [C(321-340)]	binds
ILEIPSKDHPYDPEKDSVLK-cellulose (peptide, UniProt P39111 91-110, looked up, reading uncertain, V-ATPase subunit F, S. cerevisiae, residues 91-110; source: synthetic peptide, spotted on glass slide array (Intavis)) [F(91-110)]	binds
LTGYITEGQIFVDRQLHNKG-cellulose (peptide, UniProt P16140 349-368, looked up, reading uncertain, source: synthetic peptide, spotted on glass slide array (Intavis)) [B(349-368)]	binds
YGNFLSSVSSESLTTSLIQE-cellulose (peptide, UniProt P32366 51-70, looked up, reading uncertain, V-ATPase Vo subunit d, S. cerevisiae, residues 51-70; source: synthetic peptide, spotted on glass slide array (Intavis)) [d(51-70)]	binds

Quick one: give measured binding result for FLDLLKLVKITIKEKVSRLC-cellulose (peptide, UniProt P41807 271-290, looked up, reading uncertain, source: synthetic peptide, spotted on glass slide array (Intavis)) [H(271-290)] binds
